target: rat orexin 1 receptor (Rattus norvegicus, UniProt P56718); assay: Rat orexin 1 receptor radioligand binding; conditions: rat orexin 1 receptor; averages of 2-20 runs; read-out: rOX1 Ki
property measured: Ki (nM)

Here is how some molecules turned out for Ki.
INSERT INTO measurements (entry_smiles, value) VALUES
  ('O=C(c1ccccc1-c1ncc(F)cn1)N1C[C@H]2C[C@@H](Oc3ccc(Cl)cn3)[C@@H]1C2', 11),
  ('O=C(c1cccc(F)c1-c1ncccn1)N1C[C@H]2C[C@@H](Oc3ncc(C(F)(F)F)cc3F)[C@@H]1C2', 13);

a = O=C(c1cc(F)ccc1-c1ncccn1)N1C[C@@H]2CC[C@H]1[C@H](Oc1ccc(C(F)(F)F)cn1)C2
b = Cc1ccc(C(=O)N2C[C@H]3C[C@@H](Nc4ccc(C(F)(F)F)cn4)[C@@H]2C3)c(-n2nccn2)n1
c = Cc1ccc(-n2nccn2)c(C(=O)N2C[C@H]3C[C@@H](N(C)c4ccc(C(F)(F)F)cn4)[C@@H]2C3)n1
d = O=C(c1cccc(F)c1-c1ncccn1)N1C[C@H]2C[C@@H](Oc3cccc(C(F)(F)F)n3)[C@@H]1C2
e = O=C(c1cccc(F)c1-c1ncccn1)N1C[C@H]2C[C@@H](Oc3ncccc3C(F)(F)F)[C@@H]1C2
**Q:** Number of molecules to sort: 5. Sort criterion: Ki, ascending. Give the order by naming the labels one after another as requested.
**A:** c, a, b, d, e
(c: 7 nM, a: 11 nM, b: 24 nM, d: 35 nM, e: 320 nM)

----------
biological target: rat orexin 1 receptor (Rattus norvegicus, UniProt P56718); test: Rat orexin 1 receptor radioligand binding; conditions: rat orexin 1 receptor; averages of 2-20 runs; read-out: rOX1 Ki
property measured: Ki (nM)

INSERT INTO results (compound, property_measured, value) VALUES
  ('Cc1cnc(C(=O)N2C[C@H]3C[C@@H](Nc4cnc(C(F)(F)F)cn4)[C@@H]2C3)c(-c2ncccn2)c1', 'Ki', 12);

a = O=C(c1ccccc1-n1nccn1)N1C[C@H]2C[C@@H](Oc3ccc(C(F)(F)F)nn3)[C@@H]1C2
b = O=C(c1ccccc1-c1ncc(F)cn1)N1CC2CCC1C(Oc1ccc(C(F)(F)F)cn1)C2 (racemic)
**Q:** Compare a and b by numeric Ki and name the larger one. Respond with the label that goes with your answer.
**A:** a

----------
biological target: human orexin 2 receptor (Homo sapiens (Human), UniProt O43614); test: Human orexin 2 receptor radioligand binding; details: human orexin 2 receptor; averages of 2-20 runs; read-out: hOX2 Ki
Sequence (O43614 whole entry): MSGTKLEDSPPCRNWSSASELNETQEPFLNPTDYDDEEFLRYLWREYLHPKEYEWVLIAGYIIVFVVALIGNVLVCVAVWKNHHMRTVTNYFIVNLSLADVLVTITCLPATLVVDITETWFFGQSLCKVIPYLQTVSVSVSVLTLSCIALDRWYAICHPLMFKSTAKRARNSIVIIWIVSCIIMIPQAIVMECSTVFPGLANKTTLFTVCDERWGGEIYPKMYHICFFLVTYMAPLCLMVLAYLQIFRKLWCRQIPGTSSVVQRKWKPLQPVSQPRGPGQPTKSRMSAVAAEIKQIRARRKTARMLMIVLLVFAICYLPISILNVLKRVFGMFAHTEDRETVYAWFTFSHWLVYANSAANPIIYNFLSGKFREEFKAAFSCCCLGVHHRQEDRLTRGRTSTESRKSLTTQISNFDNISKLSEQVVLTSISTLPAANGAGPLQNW
property measured: Ki (nM)

Some solved cases for reference:
INSERT INTO assay_data (molecule, property_measured, value) VALUES
  ('O=C(c1cccc(F)c1-c1ncccn1)N1C[C@@H]2CC[C@H]1[C@H](Oc1ncc(C(F)(F)F)cc1F)C2 [Example 266]', 'Ki', 654),
  ('O=C(c1ccc(F)cc1-c1ncccn1)N1C[C@H]2C[C@@H](Nc3cnc(C(F)(F)F)cn3)[C@@H]1C2 [Example 198]', 'Ki', 1380),
  ('O=C(c1cccc(F)c1-c1ncc(F)cn1)N1C[C@H]2C[C@@H](Oc3ccc(Cl)cn3)[C@@H]1C2 [Example 117]', 'Ki', 1600),
  ('O=C(c1ccc(F)cc1-c1ncccn1)N1C[C@@H]2CC[C@H]1[C@H](Nc1cnc(C(F)(F)F)cn1)C2 [Example 277]', 'Ki', 998);

I = O=C(c1cccc(F)c1-c1ncccn1)N1C[C@H]2C[C@@H](Nc3ncc(Cl)cn3)[C@@H]1C2 [Example 236]
II = Cc1ccc(-n2nccn2)c(C(=O)N2C[C@H]3C[C@@H](N(C)c4ccc(C(F)(F)F)cn4)[C@@H]2C3)n1 [Example 156]
**Q:** API: POST /compare with I and II ; response names the item with higher Ki. Provide the label of your selected option as the answer.
**A:** I
